Target sequence: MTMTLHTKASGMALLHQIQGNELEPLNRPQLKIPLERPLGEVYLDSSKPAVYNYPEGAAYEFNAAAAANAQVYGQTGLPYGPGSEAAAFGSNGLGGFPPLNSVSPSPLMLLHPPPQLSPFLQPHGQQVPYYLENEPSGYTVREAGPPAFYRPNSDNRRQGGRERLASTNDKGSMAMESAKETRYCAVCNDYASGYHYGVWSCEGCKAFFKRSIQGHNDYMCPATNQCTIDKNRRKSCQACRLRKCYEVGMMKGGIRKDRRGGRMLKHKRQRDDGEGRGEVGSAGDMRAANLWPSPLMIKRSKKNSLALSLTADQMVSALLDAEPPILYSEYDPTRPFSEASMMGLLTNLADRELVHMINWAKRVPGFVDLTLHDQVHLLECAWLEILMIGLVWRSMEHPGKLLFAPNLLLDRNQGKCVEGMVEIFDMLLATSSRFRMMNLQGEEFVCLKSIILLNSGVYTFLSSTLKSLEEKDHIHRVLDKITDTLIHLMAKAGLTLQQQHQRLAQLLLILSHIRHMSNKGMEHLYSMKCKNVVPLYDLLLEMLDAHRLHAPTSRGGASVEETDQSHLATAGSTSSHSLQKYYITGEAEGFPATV
quantity_kind: Ki

CN(C)C(=O)c1ccc(-c2ccc3c(n2)Oc2ccccc2[C@@H]3C(C)(C)C(=O)Nc2nncs2)cc1 ... > 75 µM

Moving on to another compound below.
Ki reported for this compound CCN(C)C(=O)c1ccc(-c2ccc3c(n2)Oc2ccccc2[C@@H]3C(C)(C)C(=O)Nc2nncs2)cc1F : > 75 µM

----------
system_tested: Glucocorticoid receptor (Homo sapiens, UniProt P04150)
Sequence (P04150 whole entry, the tested form may be a part): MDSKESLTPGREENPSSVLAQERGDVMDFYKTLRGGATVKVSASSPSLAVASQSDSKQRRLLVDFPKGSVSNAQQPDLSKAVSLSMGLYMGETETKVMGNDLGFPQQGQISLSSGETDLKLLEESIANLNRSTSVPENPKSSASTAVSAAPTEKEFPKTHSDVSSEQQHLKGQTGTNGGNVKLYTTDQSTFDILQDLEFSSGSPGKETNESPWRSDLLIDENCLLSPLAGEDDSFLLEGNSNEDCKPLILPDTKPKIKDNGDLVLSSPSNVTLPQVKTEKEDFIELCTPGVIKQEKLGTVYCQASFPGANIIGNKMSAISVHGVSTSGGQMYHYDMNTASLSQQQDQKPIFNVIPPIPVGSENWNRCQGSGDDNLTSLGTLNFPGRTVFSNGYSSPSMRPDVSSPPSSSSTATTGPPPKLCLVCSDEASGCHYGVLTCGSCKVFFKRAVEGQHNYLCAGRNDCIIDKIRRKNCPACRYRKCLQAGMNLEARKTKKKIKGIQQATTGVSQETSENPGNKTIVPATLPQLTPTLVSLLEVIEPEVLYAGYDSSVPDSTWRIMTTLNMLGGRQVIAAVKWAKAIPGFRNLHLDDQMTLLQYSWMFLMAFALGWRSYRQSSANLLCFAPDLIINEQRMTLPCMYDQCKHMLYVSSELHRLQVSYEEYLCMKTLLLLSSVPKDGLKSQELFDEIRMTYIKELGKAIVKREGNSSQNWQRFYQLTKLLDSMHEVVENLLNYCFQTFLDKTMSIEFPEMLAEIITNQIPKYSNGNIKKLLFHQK
test: Transactivation activity at GR-alpha in human NP1 Hela cells assessed as inhibition of GAL4-DBD after 20 hrs by luciferase reporter gene assay
Type: cell-based
# pEC50 per entry
In plain terms, pEC50 is the concentration in mol/L turned into minus its base-10 logarithm.

Below: 6 molecules and their reported pEC50.
CC(C)(C(=O)Nc1nncs1)[C@H]1c2ccccc2Oc2nc(-c3ccc(C(=O)N4CCCC4)c(F)c3)ccc21 ... 6.69
CC(=O)c1ccc(-c2ccc3c(n2)Oc2ccccc2[C@@H]3C(C)(C)C(=O)Nc2nncs2)cc1F ... 6.87
CN(C)C(=O)c1ccc(-c2ccc3c(n2)Oc2ccccc2[C@H]3C(C)(C)C(=O)Nc2nncs2)cc1 ... 5.76
CC(C)(C(=O)Nc1nncs1)[C@H]1c2ccccc2Oc2nc(-c3ccc(C(=O)N4CCC(F)(F)C4)c(Cl)c3)ccc21 ... 6.89
CCS(=O)(=O)c1ccc(-c2ccc3c(n2)Oc2ccccc2[C@@H]3C(C)(C)C(=O)Nc2nncs2)cc1 ... 6.71
CC(C)(C(=O)Nc1nncs1)[C@H]1c2ccccc2Oc2nc(-c3ccccc3)ccc21 ... 6.73

Moving on to another molecule below.
pEC50 reported for this molecule CC(C)(C(=O)Nc1nncs1)[C@H]1c2ccccc2Oc2nc(-c3ccc(C(=O)N4CCC(F)(F)C4)c(F)c3)ccc21 : 7.00

----------
system_tested: Glucocorticoid receptor (Homo sapiens, UniProt P04150)
test: Transactivation activity at glucocorticoid receptor alpha human 13D3/Huh7 cells assessed as induction of TAT activity after 4 hrs by spectrophotometry
Type: cell-based, Huh-7
// boundary case: EC50 equal to 200 nM maps to not fulfilled; strictly smaller maps to fulfilled

These recorded examples may help you get a feel for the data.
Cc1ccc(-c2ccc3c(n2)Oc2ccccc2[C@@H]3C(C)(C)C(=O)Nc2nncs2)cc1 ... not fulfilled
CC(=O)c1ccc(-c2ccc3c(n2)Oc2ccccc2[C@@H]3C(C)(C)C(=O)Nc2nncs2)cc1F ... not fulfilled
CN(C)C(=O)c1ccc(-c2ccc3c(n2)Oc2ccccc2[C@@H]3C(C)(C)C(=O)Nc2nncs2)cc1 ... fulfilled
CC(C)(C(=O)Nc1nncs1)[C@H]1c2ccccc2Oc2nc(-c3ccc(C(N)=O)cc3)ccc21 ... not fulfilled
CC(C)Oc1ccc(-c2ccc3c(n2)Oc2ccccc2[C@@H]3C(C)(C)C(=O)Nc2nncs2)cc1F ... not fulfilled
CCc1ccc(-c2ccc3c(n2)Oc2ccccc2[C@H]3C(C)(C)C(=O)Nc2nncs2)cc1 ... not fulfilled
CNC(=O)c1ccc(-c2ccc3c(n2)Oc2ccccc2[C@@H]3C(C)(C)C(=O)Nc2nncs2)cc1F ... not fulfilled
Cc1ccccc1-c1ccc2c(n1)Oc1ccccc1[C@@H]2C(C)(C)C(=O)Nc1nncs1 ... not fulfilled

API: query returns whether the compound falls strictly under 200 nM in EC50. Query: CC(C)(C(=O)Nc1nncs1)[C@H]1c2ccccc2Oc2nc(-c3ccc(C(=O)N4CCC(F)(F)C4)c(F)c3)ccc21
not fulfilled

API: query returns whether the compound falls strictly under 200 nM in EC50. Query: CC(C)Oc1ccc(-c2ccc3c(n2)Oc2ccccc2[C@H]3C(C)(C)C(=O)Nc2nncs2)cc1
fulfilled

API: query returns whether the compound falls strictly under 200 nM in EC50. Query: CC(=O)c1ccc(-c2ccc3c(n2)Oc2ccccc2[C@@H]3C(C)(C)C(=O)Nc2nncs2)cc1
not fulfilled

API: query returns whether the compound falls strictly under 200 nM in EC50. Query: CCS(=O)(=O)c1ccc(-c2ccc3c(n2)Oc2ccccc2[C@@H]3C(C)(C)C(=O)Nc2nncs2)cc1
not fulfilled

API: query returns whether the compound falls strictly under 200 nM in EC50. Query: COc1ccc(-c2ccc3c(n2)Oc2ccccc2[C@@H]3C(C)(C)C(=O)Nc2nncs2)cc1
not fulfilled
